- test.target: HLA-A*0301 (human)
- protocol.conditions: remark: other sources report otherwise; scale: ratio
outcome.measure: relative binding ratio

The binder listed as SSCMGGMNRR [p53 peptide, position 240, 10 amino acids] shows relative binding ratio equal to 0.0001

The binder listed as RTEEENLRKK [p53 peptide, position 283, 10 amino acids] shows relative binding ratio equal to 3.3

The binder listed as RVRAMAIYK [p53 peptide, position 156, 9 amino acids] shows relative binding ratio equal to 1.5

The binder listed as SSCMGGMNR [p53 peptide, position 240, 9 amino acids] shows relative binding ratio equal to 0.02

The binder listed as RTEEENLRK [p53 peptide, position 283, 9 amino acids] shows relative binding ratio equal to 0.0015
